# MEASURED_TARGET: IKZF2 (Helios) (Homo sapiens, UniProt Q9UKS7)
# Construct: Leu-Asp junction (codons ctcgac before the linker); mScarlet (behind P2A) (C, cleaved yes); expressed in transfected cells
# Sequence (Q9UKS7 whole entry): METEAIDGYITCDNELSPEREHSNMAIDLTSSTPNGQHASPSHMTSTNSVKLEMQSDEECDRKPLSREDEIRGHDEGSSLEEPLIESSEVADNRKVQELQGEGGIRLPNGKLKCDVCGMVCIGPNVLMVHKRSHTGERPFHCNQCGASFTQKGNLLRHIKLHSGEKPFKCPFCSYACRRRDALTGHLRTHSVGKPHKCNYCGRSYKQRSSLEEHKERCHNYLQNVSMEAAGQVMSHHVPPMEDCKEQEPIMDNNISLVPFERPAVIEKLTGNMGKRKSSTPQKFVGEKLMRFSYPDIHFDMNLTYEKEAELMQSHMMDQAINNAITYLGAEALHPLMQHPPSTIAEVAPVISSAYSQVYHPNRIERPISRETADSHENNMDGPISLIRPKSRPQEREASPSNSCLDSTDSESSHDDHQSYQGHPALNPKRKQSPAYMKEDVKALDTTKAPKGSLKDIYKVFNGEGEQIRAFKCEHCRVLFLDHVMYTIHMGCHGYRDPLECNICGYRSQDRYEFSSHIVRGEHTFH
# Sequence (Q96SW2 whole entry, further chain): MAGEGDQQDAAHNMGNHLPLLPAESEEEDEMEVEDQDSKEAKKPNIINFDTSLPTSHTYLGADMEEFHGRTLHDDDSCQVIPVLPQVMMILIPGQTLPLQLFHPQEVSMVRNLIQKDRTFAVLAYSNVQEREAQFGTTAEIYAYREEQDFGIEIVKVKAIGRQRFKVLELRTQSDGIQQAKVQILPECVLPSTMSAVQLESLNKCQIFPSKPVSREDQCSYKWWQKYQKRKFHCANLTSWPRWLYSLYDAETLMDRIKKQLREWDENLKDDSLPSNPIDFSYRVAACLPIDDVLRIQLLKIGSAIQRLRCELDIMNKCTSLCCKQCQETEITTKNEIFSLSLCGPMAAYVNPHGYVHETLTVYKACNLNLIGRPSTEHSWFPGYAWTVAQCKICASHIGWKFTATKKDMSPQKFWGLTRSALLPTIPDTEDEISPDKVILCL
# Sequence (Q16531 whole entry partner): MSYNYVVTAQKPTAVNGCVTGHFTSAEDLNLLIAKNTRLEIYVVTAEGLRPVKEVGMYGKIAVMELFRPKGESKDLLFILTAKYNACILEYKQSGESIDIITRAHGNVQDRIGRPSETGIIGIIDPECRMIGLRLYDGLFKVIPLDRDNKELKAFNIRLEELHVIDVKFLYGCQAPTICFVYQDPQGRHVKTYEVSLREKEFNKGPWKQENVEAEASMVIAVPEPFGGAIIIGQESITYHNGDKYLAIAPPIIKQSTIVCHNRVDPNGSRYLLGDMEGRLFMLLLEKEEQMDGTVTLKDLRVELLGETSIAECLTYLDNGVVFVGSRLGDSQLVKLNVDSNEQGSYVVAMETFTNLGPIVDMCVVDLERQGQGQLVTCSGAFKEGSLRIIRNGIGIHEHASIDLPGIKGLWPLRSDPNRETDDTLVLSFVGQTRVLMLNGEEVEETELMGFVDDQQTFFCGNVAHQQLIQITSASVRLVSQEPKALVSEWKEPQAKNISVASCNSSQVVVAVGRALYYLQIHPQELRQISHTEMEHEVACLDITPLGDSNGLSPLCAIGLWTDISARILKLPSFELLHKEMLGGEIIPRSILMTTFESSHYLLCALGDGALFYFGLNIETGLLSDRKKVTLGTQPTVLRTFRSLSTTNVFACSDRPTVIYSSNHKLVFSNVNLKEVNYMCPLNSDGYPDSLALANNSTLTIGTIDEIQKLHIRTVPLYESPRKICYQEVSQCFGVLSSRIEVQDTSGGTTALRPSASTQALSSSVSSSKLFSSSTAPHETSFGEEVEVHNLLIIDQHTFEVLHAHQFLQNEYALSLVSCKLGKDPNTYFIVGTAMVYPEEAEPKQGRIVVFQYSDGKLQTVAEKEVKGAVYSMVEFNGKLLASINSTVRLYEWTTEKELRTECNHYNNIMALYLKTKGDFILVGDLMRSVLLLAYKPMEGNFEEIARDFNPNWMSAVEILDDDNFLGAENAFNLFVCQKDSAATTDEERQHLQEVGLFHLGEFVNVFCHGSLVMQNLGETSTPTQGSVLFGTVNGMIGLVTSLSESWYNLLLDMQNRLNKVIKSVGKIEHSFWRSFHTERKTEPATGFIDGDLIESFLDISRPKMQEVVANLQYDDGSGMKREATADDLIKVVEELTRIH
# TEST: IKZF2 reporter degradation assay (HEK 293T IKZF2-mNeonGreen reporter cell line)
# Type: cell-based
# SETTINGS: HEK 293T IKZF2 reporter cells, 24 hours incubation
READOUT_NAME: DC50 (nM)
Give bare numbers, in nM.

INSERT INTO assay_data (compound, readout_name, numeric_result) VALUES
  ('O=C1CCC(N2Cc3cc(OC4CCCCC4N4CC(c5cnc6ccccc6n5)C4)ccc3C2=O)C(=O)N1 (stereo not drawn)', 'DC50', 38.2),
  ('O=C1CCC(N2Cc3cc(OC4CCCCC4N4CC(c5cccc6[nH]ncc56)C4)ccc3C2=O)C(=O)N1 (stereo not drawn)', 'DC50', 28.3);

Now, please, on to the next compound.
Data request: Query the reported DC50 for IKZF2 (Helios) (Homo sapiens, UniProt Q9UKS7); item: O=C1CCC(N2Cc3cc(OC4CCCCC4N4CC(c5ncccn5)C4)ccc3C2=O)C(=O)N1 (stereo not drawn)
Data returned: 232

###

Please go through the items and note down their pEC50.
# MEASURED_TARGET: human E3 ligase component cereblon (CRBN) (Homo sapiens, UniProt Q96SW2)
# Sequence (Q96SW2 whole entry): as the sequence (Q96SW2 whole entry, further chain) above
# Sequence (Q16531 whole entry partner): as the sequence (Q16531 whole entry partner) above
# TEST: Cereblon (CRBN) target engagement, NanoBRET TE Intracellular E3 Ligase Assay in transfected HEK-293T cells
# SETTINGS: read-out: CRBN Binding EC50
Give bare numbers, as −log10 of the molar value.

INSERT INTO assay_data (compound, readout_name, numeric_result) VALUES
  ('O=C1CCC(N2Cc3cc(O[C@H]4CCCC[C@@H]4N4CC(c5cncc(Cl)c5)C4)ccc3C2=O)C(=O)N1 (single isomer, unassigned) [Compound 116-B]', 'pEC50', 8.22),
  ('O=C1CCC(N2Cc3cc(O[C@H]4CCCC4N4CC(c5ccnc6ccccc56)C4)ccc3C2=O)C(=O)N1 (mixture of isomers)', 'pEC50', 7.62);

Data request: Give pEC50 (human E3 ligase component cereblon (CRBN) (Homo sapiens, UniProt Q96SW2)) of the following compound: O=C1CCC(N2Cc3cc(O[C@H]4CCCC[C@@H]4N4CC(C5CCN(C(=O)CC6CC6)CC5)C4)ccc3C2=O)C(=O)N1 (stereo partly shown)
Data returned: 8.00

###

# MEASURED_TARGET: IKZF2 (Helios) (Homo sapiens, UniProt Q96SW2+Q9UKS7)
# Construct: Leu-Asp junction (codons ctcgac before the linker); mScarlet (behind P2A) (C, cleaved yes); expressed in transfected cells
# Sequence (Q9UKS7 whole entry): as the sequence (Q9UKS7 whole entry) above
# Sequence (Q96SW2 whole entry): as the sequence (Q96SW2 whole entry, further chain) above
# Sequence (Q16531 whole entry partner): as the sequence (Q16531 whole entry partner) above
# TEST: IKZF2 reporter degradation assay (HEK 293T IKZF2-mNeonGreen reporter cell line)
# Type: cell-based
# SETTINGS: HEK-293T, 24 h, @ 1 μM, HEK 293T IKZF2-mNeonGreen reporter, 24 hours incubation
READOUT_NAME: inhibition at 1 µM (%)
Give bare numbers, in %.

Below, each entry is followed by its recorded inhibition at 1 µM result.
INSERT INTO assay_data (molecule, readout_name, unit_symbol, numeric_result) VALUES
  ('Cc1cnc(C2CN([C@H]3CCCC[C@H]3Oc3ccc4c(c3)CN(C3CCC(=O)NC3=O)C4=O)C2)o1 (mixture of isomers)', 'inhibition at 1 µM', '%', 70.3),
  ('O=C1CCC(N2Cc3cc(O[C@H]4CCCC[C@@H]4N4CC(c5ccncc5Cl)C4)ccc3C2=O)C(=O)N1 (single isomer, unassigned) [Compound 95-B]', 'inhibition at 1 µM', '%', 77.8),
  ('O=C1CCC(N2Cc3cc(O[C@@H]4CCC[C@@H]4N4CC(c5ccnc6ccccc56)C4)ccc3C2=O)C(=O)N1 (stereo partly drawn)', 'inhibition at 1 µM', '%', 79.8);

Parameters: items (list). Returns: inhibition at 1 µM for each item.
1. O=C1CCC(N2Cc3cc(O[C@H]4CCCC[C@@H]4N4CC(c5ccncc5F)C4)ccc3C2=O)C(=O)N1 (single isomer, unassigned) [Compound 102-B]
2. Cc1cnc(C2CN([C@H]3CCCC3Oc3ccc4c(c3)CN(C3CCC(=O)NC3=O)C4=O)C2)o1 (mixture of isomers)
3. O=C1CCC(N2Cc3cc(O[C@H]4CCCC[C@@H]4N4CC(C5CCN(C(=O)CC6CC6)CC5)C4)ccc3C2=O)C(=O)N1 (stereo partly drawn)

Data returned:
71.1
49.7
88

Parameters: items (list). Returns: inhibition at 1 µM for each item.
1. CC1CC1C(=O)N1CCC(C2CN([C@H]3CCCC[C@@H]3Oc3ccc4c(c3)CN(C3CCC(=O)NC3=O)C4=O)C2)CC1 (stereo partly drawn)
2. O=C1CCC(N2Cc3cc(O[C@@H]4CCCC[C@H]4N4CC(c5ccc(C(F)(F)F)cn5)C4)ccc3C2=O)C(=O)N1 (single isomer, unassigned)
3. O=C1CCC(N2Cc3cc(O[C@H]4CCCC[C@@H]4N4CC(C5CCN(C(=O)C6(F)CC6)CC5)C4)ccc3C2=O)C(=O)N1 (stereo partly drawn)

Data returned:
88.2
24.2
87.3

Hello, the source for this data is patent US20250100996A1, in case you need it.
